# reported inhibition; entries follow
# test name: Leishmania major promastigote growth inhibition, primary screen (AID 1063);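 note: promastigotes grown with compound for 44 hours at 28 °C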
# study conditions: Leishmania major promastigotes, resazurin fluorescence viability; at 10 µM; hits give high values
Hit rate of the full screen: of about 200,000 compounds, about 18,000 (9%) were called active. Many of the other results were omitted from the sample, so actives are more common in it than they were.
Report only the number, with the unit % understood.

Here is how some compounds turned out for inhibition.
Looking for the measured inhibition of Nc1nnnn1CC(=O)N/N=C/c1ccc(-c2cccc(Cl)c2)o1 , can you help? -9.69

Which inhibition value belongs to N#Cc1ccc(N2Cc3ccccc3/C2=N/C(=O)Nc2ccc(Cl)cc2)cc1 ? 71.6

Item Cc1ccccc1C(=O)OC1OC(=O)C(Cl)=C1Nc1ccccc1 (stereo unspecified) has what recorded inhibition? 2.63

Others:
Item under review: CCCN(C(=O)CSc1nnnn1C)c1c(N)n(Cc2ccccc2)c(=O)[nH]c1=O . Reported inhibition? -5.81

Look up inhibition for this compound: CC(=O)c1c(-c2ccccc2)c2ccccc2[nH]c1=O -2.95

Quick one: inhibition for CN(C)S(=O)(=O)c1ccc(NC(=O)N2CCOCC2)cc1 ? -2.72

// inhibition lookup, key: Cc1ccc(NC(=O)c2cccnc2C(=O)Nc2ccc(C)cc2)cc1 -1.85

# input compound: COc1ccc2oc(=O)c(C(=O)N3CCCC3)cc2c1 ; wanted: its inhibition -7.26

Quick one: inhibition of CCC1CCCCN1C(=O)CSc1nc(C)cc(C)n1 (stereo unspecified) ? 11.3

# lookup: inhibition of COc1cc(OC)c(C2=NOC(C(=O)Nc3c(C)n(C)n(-c4ccccc4)c3=O)C2)cc1Cl (stereo unspecified) -5.3

Which inhibition reading was recorded for the compound Cc1ccc(CC(=O)Nc2cccc(C#N)c2)cc1 ? -0.29

====

In this section, each of the compounds is paired with its reported inhibition.
# test name: Leishmania major promastigote growth inhibition, primary screen (AID 1063);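 note: promastigotes grown with compound for 44 hours at 28 °C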
# study conditions: Leishmania major promastigotes, resazurin fluorescence viability; at 10 µM; hits give high values
Among all 200,000 compounds or so, about 18,000 (9%) were called active. This excerpt belongs to a sample that is enriched for actives.
Number in %, nothing else.

Can you share its inhibition? I mean this compound: Cc1ccc(C(=O)N2CC(=O)Nc3ccccc32)o1 -0.84

What value of measured inhibition is listed for CN1/C(=C\C(=O)c2oc3ccccc3c2N)C(C)(C)c2ccccc21 ? 5.73

Would you kindly share the measured inhibition for CN1CCN(CC(=O)C23CC4CC(CC(C4)C2)C3)CC1 ? 88.5

What value of measured inhibition is listed for O=C(N1CCCC1)C12CC3CC(C1)CC(C(=O)N1CCCC1)(C3)C2 ? -2.33

Sample COc1ccc(-c2onc(C)c2-c2ccc3c(c2)OCCO3)c(O)c1 — what was its inhibition? 72.5

Name the recorded inhibition for O=C(NCc1ccccc1Cl)C1CCN(S(=O)(=O)N2CCOCC2)CC1 . -5.43

What value of inhibition has been reported for the following compound? Cn1cccc1C(C#N)c1ccccc1C#N (stereo not given) 4.16

Look at this compound and give its reported inhibition. Cc1cc(/C=C(/C#N)C(=O)Nc2ccc(Cl)cc2)c(C)n1-c1cccnc1 56.9

Others:
// returns reported inhibition for input COc1ccc([N+](=O)[O-])cc1N(CC(O)Cn1nnc2ccccc21)S(=O)(=O)c1ccc(C)cc1 (stereo not given) 99

# input compound: CCOc1ccc(-c2nnc(-c3ccco3)o2)cc1 ; wanted: its inhibition 2.35

Any idea what inhibition was measured for CSc1ccc(S(=O)(=O)NCc2ccc(Cl)cc2)cc1 ? -1.27

Sample CN(C)c1ccc(C2Nc3ccccc3C(=O)N2NS(=O)(=O)c2ccccc2)cc1 (stereo not given) — what was its inhibition? 3.72

Look up inhibition: N/C(=N/O)c1cccn1Cc1ccccc1[N+](=O)[O-] -1.66

Please look up its inhibition: NC(=O)c1ccc(NC(=O)COC(=O)C(Cc2ccccc2)NC(=O)c2ccccc2)cc1 (stereo not given) 1.11

Name the reported inhibition value associated with the compound O=C(CSc1cccc[n+]1[O-])c1ccc(Cl)cc1 1.35

Given the entry CCOC(=O)c1sc2nc(CSc3ccccc3)[nH]c(=O)c2c1C , report its measured inhibition. 14.1

====

# test name: Leishmania major promastigote growth inhibition, primary screen (AID 1063);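 note: promastigotes grown with compound for 44 hours at 28 °C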
# study conditions: Leishmania major promastigotes, resazurin fluorescence viability; at 10 µM
Among all 200,000 compounds or so, about 18,000 (9%) were called active. Cut-off read from the data, not from the text of the source: active = inhibition above about 50%; inactive = the rest. The sample holds actives, similar compounds and a random draw of the others, so the mix is not that of the screen.
One label from this list, please: active, inactive

Lab log entry: CCc1ccc2c(c1)C(c1ccc([N+](=O)[O-])cc1)=NNC(c1ccccc1)=N2 — outcome as called in the assay? active

====

# test name: Leishmania major promastigote growth inhibition, primary screen (AID 1063);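 note: promastigotes grown with compound for 44 hours at 28 °C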
# study conditions: Leishmania major promastigotes, resazurin fluorescence viability; at 10 µM
Screen size: about 200,000 compounds; about 18,000 (9%) were called active. No stated cut-off is given here; in the data, active means inhibition above about 50%; inactive means the rest. For the sample, actives were picked, then their nearest neighbours and some compounds at random.
Hi! Could you answer with just one of these? true (active), false (inactive)

Completed entries (count: 4):
Field: outcome | Entry: O=C(/C=C/c1cn(-c2ccccc2)nc1-c1ccc2c(c1)OCCO2)NCCCN1CCOCC1 false

Identify the outcome logged in this assay for the compound shown: COc1ccc(-c2nn(-c3ccccc3)cc2C(=O)Nc2nccs2)cc1OC false

Query: recorded result category for CSc1ccc(S(=O)(=O)NC2CCCCC2)cc1 in this test false

Hi, do you know how O=C(C1CCN(S(=O)(=O)Cc2ccccc2)CC1)N1CCCc2ccccc21 came out in this test? false

Then there is this compound:
Name the outcome recorded for O=C(CC1C(=O)NCCN1Cc1ccc(-c2ccccc2)cc1)NCC1CCOCC1 (configuration not stated) in the assay. false

====

# test name: Leishmania major promastigote growth inhibition, primary screen (AID 1063);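 note: promastigotes grown with compound for 44 hours at 28 °C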
# study conditions: Leishmania major promastigotes, resazurin fluorescence viability; at 10 µM; hits give high values
The whole screen tested about 200,000 compounds, of which about 18,000 (9%) were called active. Many of the other results were omitted from the sample, so actives are more common in it than they were.
observable: inhibition (%)
Field format: number, assumed %, no unit text.

// below: answered molecules
# inhibition lookup, item O=C(CCC(=O)Nc1ccccc1)N/N=C/c1ccccc1F 0.99

Quick check: inhibition of Cc1n[nH]c(=O)n1-c1ccc(C(C)C)cc1 ? -3.84

If you can, please state the reported inhibition value of COCCCNC(NC(=O)c1ccc(OC)cc1)C(Cl)(Cl)Cl (stereo unspecified) . -5.56

Could you share which inhibition value was measured for Cc1ccc(-c2cc(=O)c3ccc(F)cc3[nH]2)cc1 ? 1.73

Consider the molecule COc1ccc(-c2cc(-c3ccc(N)cc3)nc(N)c2C#N)cc1OC and give its measured inhibition. -6.13

Next molecule, inhibition to be filled in.
What measured inhibition goes with Cc1ccc(C(=O)OC2CCCN(C)C2)cc1 (stereo unspecified) ? -6.05

====

# test name: Leishmania major promastigote growth inhibition, primary screen (AID 1063);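 note: promastigotes grown with compound for 44 hours at 28 °C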
# study conditions: Leishmania major promastigotes, resazurin fluorescence viability; at 10 µM; hits give high values
Hit rate of the full screen: of about 200,000 compounds, about 18,000 (9%) were called active. What follows is part of a selection rich in actives, with near analogues and random picks from the rest.
# inhibition annotations
Kindly answer with a numeric value in %, unit omitted.

Solved entries (count: 5):
# get_value(readout='inhibition', item= COc1ccc([N+](=O)[O-])cc1NC(=O)CCc1ccccc1 ) -3.05

Name the recorded inhibition for CCC(C)N(C(=O)COC(=O)C1C(C(=O)OC)=C(C)NC(C)=C1C(=O)OC)C1CCS(=O)(=O)C1 (centres undefined) . -3.21

So what's the measured inhibition for this one? CCOc1ccc(Br)cc1CSC(=N)N 33.2

Which inhibition is reported for this molecule? CC(C)OC(=O)CN1CCN(c2ccc(Cl)cc2)CC1 -1.87

Entry Cc1onc(-c2ccccc2Cl)c1C(=O)NCCn1ccc2ccccc21 : reported inhibition = ? 5.91

More entries:
Could you tell me which inhibition is on file for Cc1nc(SCc2ccc(F)cc2)c([N+](=O)[O-])[nH]1 ? -7.82

Reported inhibition for Cc1[nH]c2ccccc2c1C(=O)COC(=O)C(C)C : what is it? -4.11

====

# test name: Leishmania major promastigote growth inhibition, primary screen (AID 1063);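 note: promastigotes grown with compound for 44 hours at 28 °C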
# study conditions: Leishmania major promastigotes, resazurin fluorescence viability; at 10 µM
Screen size: about 200,000 compounds; about 18,000 (9%) were called active. No stated cut-off is given here; in the data, active means inhibition above about 50%; inactive means the rest. The sample as a whole holds a higher share of actives than the screen did.
// one of label 1 = active, label 0 = inactive, no free text

Worked examples, 10 molecules total:
# lookup: test call for COc1ccc(C2C(C(C)=O)=C(O)C(=O)N2CCc2c[nH]c3ccccc23)cc1 (stereo not given) label 0

What outcome does the record of this test show for COc1ccc(C)cc1-n1nnnc1SCc1nc2ccccc2c(=O)[nH]1 ? label 0

Which result was noted for this molecule in the test: COc1cc(OC)cc(-c2nnc(SCC(=O)Nc3ccc(C(=O)O)cc3)s2)c1 label 0

Tell me the recorded outcome of this test for COc1cc2c(cc1OC)C(C(C)C)=NC(C)(C)C2 . label 0

Per the records of this test, what outcome belongs to O=C(CN1CCN(c2ccc(O)cc2)CC1)NC1CCCc2ccccc21 (stereo not given) ? label 1

For this molecule, state the assay outcome: CN1CCN(CCCNC(=O)c2cc3c(=O)oc4ccccc4c3s2)CC1 label 0

// param item: O=C(c1ccc(Cl)c(Cl)c1)N1CCCC1 ; yields the recorded call label 0

Field: outcome | Entry: O=C(CSc1nncs1)NC1CCCc2ccccc21 (stereo not given) label 0

Write down the call the test reported for this molecule. Item: COc1cc2c(cc1O)C(SC)=NC(C)(C)C2 label 1

Look up the recorded call for COc1cc2c(cc1OC)C(Nc1ccc(S(N)(=O)=O)cc1)=NC(C)(C)C2 in this test. label 0

Continuing:
Recorded test call requested for CCCNC(=O)c1ccc(Cl)c(Cl)c1 label 0

Hi team, can someone confirm the assay call for O=C(NCCN1CCN(Cc2ccccc2)CC1)c1cc2c(=O)[nH]c3ccccc3c2s1 ? label 1

Test call, this molecule: CCN1C(=O)/C(=c2\s/c(=C3\Sc4ccccc4N3C)c(=O)n2C)N(C)C1=S label 0

Outcome? CCN(CC)CC1(O)CCN(C(=O)c2ccc(Cl)c(Cl)c2)CC1 label 1

Lab log entry: O=C(CCC(=O)N1CCN(S(=O)(=O)c2ccccc2)CC1)NC1CCCc2ccccc21 (stereo not given) — outcome as called in the assay? label 0
